Target: T1, human ST2L extracellular domain with C-terminal His6 tag (human, UniProt Q01638 19-328)
T1 construct: also called huST2L-ECD; ST2L-ECD
T1 sequence: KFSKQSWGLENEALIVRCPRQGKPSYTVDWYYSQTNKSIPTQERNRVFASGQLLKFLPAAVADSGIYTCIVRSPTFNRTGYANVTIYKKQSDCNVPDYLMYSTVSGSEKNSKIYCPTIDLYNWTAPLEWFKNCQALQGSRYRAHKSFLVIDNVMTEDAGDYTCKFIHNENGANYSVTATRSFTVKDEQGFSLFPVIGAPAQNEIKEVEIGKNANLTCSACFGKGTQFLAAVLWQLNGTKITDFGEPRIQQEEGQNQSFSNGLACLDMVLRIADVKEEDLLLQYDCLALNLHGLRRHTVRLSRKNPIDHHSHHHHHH
Experiment: SPR, mAb captured, ST2L-ECD in solution
# reported koff; entries follow
Your answer should be a plain number; it is taken to be in s⁻¹.

Worked cases, answers included:
INSERT INTO assay_data (binder, measured_attribute, value_observed) VALUES
  ('STLM62 (antibody, human IgG2, V domains shown, Mouse hybridoma C2494 cloned into human IgG2 background (STLM62); also called C2494) VH: EVQLQQSVAELVRPGASVKLSCTASAFNIKDDYMHWVKQRPEQGLEWIGRIDPAIGNTEYAPKFQDKATMTADTSSNTAYLQLSSLTSEDTAVYYCALGDFYAMDYWGQGTSVTVSS VL: ETTVTQSPASLSVATGEKVTIRCITNTDIDDVIHWYQQKPGEPPKLLISEGNTLRPGVPSRFSSSGYGTDFVFTIENTLSEDVADYYCLQSDNMLTFGAGTKLELK', 'koff', 0.000119),
  ('STLM15 (antibody, human IgG2, V domains shown, Mouse hybridoma C2244 cloned into human IgG2 background (STLM15); also called C2244) VH: EVQLQESGPGLVKPSQSLSLTCTVTGFSITSDYAWNWIRQFPGSKLEWMGFISYSGDTSFNPSLKSRISVTRDTSKNQFFLQLNSVTTEDTATYYCASYDGYSFDYWGQGTTLTVSS VL: DIVLTQSPASLAISLGQRATISCRASKSVSTSGSSYMFWYQQKPGQPPKLLIYLASNLESGVPARFSGSGSGTDFTLNIHPVEEEDAAAYYCQHSREIPYTFGGGTKLEIK', 'koff', '4.25e-05');

// koff lookup, binder = C2519 (antibody, V domains shown, Mouse hybridoma antibody; also called C2519A) VH: EFQLQQSGPELVKPGASVKISCKASGYSFTDYNMNWVKQSHGKSLEWIGNINPYYGSTTYNQKFKGKATLTVDKSSNTAYMHLNSLTSEDSAVYYCAREGDTYLAWFAYWGQGTLVTVSA VL: DVLMTQTPLSLPVSLGDQASISCRSSQSIVYSNGNTYLEWYLQKPGQSPKLLIYKVSNRFSGVPDRFSGSGSGTDFTLKISRVEAEDLGVYYCFQGSHVPPTFGGGTKLEIK , result: 8.7e-05
